System: CCRF-CEM leukemia
Test: NCI tumour cell line growth inhibition, 48 h; in the data active means GI50 below about 0.43 µM; inactive means the rest
Possible outcomes: label 1 (active), label 0 (inactive)

[[record]]
compound = "Cc1cc(C)nc(SC2=C(Nc3cc(Cl)ccc3O)C(=O)N(Cc3ccccc3)C2=O)n1"
answer_label = "label 0"

[[record]]
compound = "CC(C)(Br)C(=O)C(Br)Br"
answer_label = "label 0"

[[record]]
compound = "C[C@]12CC[C@@H]3c4cc(OC(F)F)c(OS(N)(=O)=O)cc4CC[C@H]3[C@@H]1CC[C@@H]2O"
answer_label = "label 1"

[[record]]
compound = "O=C(CC1(O)C(=O)N(Cc2ccccc2)c2ccccc21)c1ccc(C(=O)NCC2CCC3(CC2)OOC2(CCCCC2)OO3)cc1 (centres undefined)"
answer_label = "label 1"

[[record]]
compound = "CC1(C)CC(=O)C2=C(C1)OC(N)=C(c1nc(-c3ccccc3)cs1)C2c1ccc(Br)cc1 (centres undefined)"
answer_label = "label 0"

[[record]]
compound = "C/C(=C\\c1cnc(C)s1)[C@@H]1C[C@@H]2O[C@@H]2CCC[C@H](C)[C@H](O)[C@@H](C)C(=O)C(C)(C)[C@@H](O)CC(=O)O1"
answer_label = "label 1"

[[record]]
compound = "CCC1(O)C(=O)OCc2c1cc1n(c2=O)Cc2cc3c(NC(=O)CN)cccc3nc2-1 (centres undefined)"
answer_label = "label 1"

[[record]]
compound = "CC(=O)NCc1cccc(C#Cc2cncnc2Nc2ccc(OCc3cccc(F)c3)c(Cl)c2)c1"
answer_label = "label 0"

[[record]]
compound = "O=C(Nc1cccc(-n2cc(-c3ccncc3)c(-c3cc(O)cc(Cl)c3)n2)c1)c1cc(C(F)(F)F)cc(C(F)(F)F)c1"
answer_label = "label 0"

[[record]]
compound = "O=C(CCCCCCN1CC(=O)N2[C@@H](c3ccc(Cl)c(Cl)c3)c3[nH]c4ccccc4c3C[C@H]2C1=O)NO"
answer_label = "label 0"

[[record]]
compound = "C=CCN1CC(=O)N2[C@@H](Cc3ccc(O)cc3F)C(=O)N(Cc3cccc(N4CC(N5CCN(CC)CC5)C4)n3)C[C@@H]2N1C(=O)NCc1ccccc1"
answer_label = "label 1"

[[record]]
compound = "NS(=O)(=O)c1ccc(-c2cc3ccncc3cc2OCc2ccccc2)cc1"
answer_label = "label 0"

[[record]]
compound = "c1ccc2c(c1)Nc1ccncc1S2"
answer_label = "label 0"

[[record]]
compound = "CCN(CC)CCCCCCNc1cc(OC)cc2cccnc12"
answer_label = "label 0"

